STUDY TARGET: Gag-Pol polyprotein [489-587] (Human immunodeficiency virus 1)
Construct: 489-587
TEST NAME: Inhibition of strand -transfer (ST) activity in the presence of Mn2+
PROPERTY LABEL: pIC50
pIC50 here is simply -log10 of the concentration when that concentration is written in mol/L.

// known answers, use as guide
>>> assay_value("CC1(C)CC2(CC(C)(C)c3c(Br)c(O)c(O)c(Br)c32)c2c(Br)c(O)c(O)c(Br)c21")
5.75
>>> assay_value("CC1(C)CC2(CC(C)(C)c3ccc(O)cc32)c2cc(O)ccc21")
3.64

Alright, here's another compound for you.
Can you look up the measured pIC50 of `CC1(C)CC2(CC(C)(C)c3cc(C=O)c(O)cc32)c2cc(O)c(C=O)cc21` for me?
5.22
